- Measurement protocol: in vivo
- Particulars: female, CD-1, mouse, po, 10 mg/kg
The following compounds are shown together with reported bioavailability values.
Output spec: scalar in %, unitless text.

Smiles string: O=[N+]([O-])c1cn2c(n1)OC[C@@H](NCCc1ccc(OC(F)(F)F)cc1)C2
Numeric result: 76

Qu. Tell me the measured bioavailability of O=[N+]([O-])c1cn2c(n1)OC[C@@H](NCc1ccc(OC(F)(F)F)cc1)C2 , please.
Ans. 74

---

- Measurement protocol: in vivo
- Particulars: female, CD-1, mouse, po, 50 mg/kg
Attribute measured: AUC (ng·h/mL)
Output spec: scalar in ng·h/mL, unitless text.

Smiles string: O=C(CO[C@@H]1COc2nc([N+](=O)[O-])cn2C1)N1CCN(c2ccc(C(F)(F)F)cn2)CC1
Numeric result: 89500

Kindly consider the entry below.
Qu. Tell me the measured AUC of O=C(CO[C@@H]1COc2nc([N+](=O)[O-])cn2C1)N1CCN(c2ccc(OC(F)(F)F)cc2)CC1 , please.
Ans. 108000

---

- Particulars: female, CD-1, mouse, in vivo, po, 25 mg/kg
Attribute measured: Lung AUC24 (µg·h/g)
Output spec: scalar in µg·h/g, unitless text.

Compound: CC[C@H]1Oc2nc([N+](=O)[O-])cn2C[C@@H]1NCc1ccc(-c2ccc(OC(F)(F)F)cc2)cc1 [NI-297]
Numeric result: 233.4
--
Compound: O=[N+]([O-])c1cn2c(n1)OC[C@@H](NCc1ccc(OC(F)(F)F)c(O)c1)C2 [NI-147]
Numeric result: 2.6
--
Compound: CC[C@H]1Oc2nc([N+](=O)[O-])cn2C[C@@H]1NCc1ccc(OC(F)(F)F)cc1 [NI-182]
Numeric result: 73.2
--
Compound: CC[C@@H]1Oc2nc([N+](=O)[O-])cn2C[C@@H]1NCc1ccc(OC(F)(F)F)cc1 [NI-269]
Numeric result: 27.5
--
Compound: O=[N+]([O-])c1cn2c(n1)OC[C@@H](NCc1ccc(OC(F)(F)F)c(F)c1)C2 [NI-136]
Numeric result: 39.8
--
Compound: CC[C@@H]1Oc2nc([N+](=O)[O-])cn2C[C@@H]1NCc1ccc(OC(F)(F)F)c(F)c1 [NI-176]
Numeric result: 30.3

Qu. Tell me the measured Lung AUC24 of O=[N+]([O-])c1cn2c(n1)OC[C@@H](OCc1ccc(OC(F)(F)F)cc1)C2 [PA-824, reference compound] , please.
Ans. 139.9

Qu. Tell me the measured Lung AUC24 of O=[N+]([O-])c1cn2c(n1)OC1(CC1)C(OCc1ccc(OC(F)(F)F)cc1)C2 (stereo not shown) [NI-302] , please.
Ans. 100.3

Qu. Tell me the measured Lung AUC24 of CC[C@@H]1Oc2nc([N+](=O)[O-])cn2C[C@@H]1OCc1ccc(OC(F)(F)F)cc1 [NI-145] , please.
Ans. 34.6

Qu. Tell me the measured Lung AUC24 of O=[N+]([O-])c1cn2c(n1)OC[C@@H](NCc1ccc(OC(F)(F)F)c(Cl)c1)C2 [NI-135] , please.
Ans. 18.6

---

- Measurement protocol: in vivo
- Particulars: female, CD-1, mouse, po, 50 mg/kg
The following compounds are shown together with reported bioavailability values.
Output spec: scalar in %, unitless text.

Smiles string: O=C(CO[C@@H]1COc2nc([N+](=O)[O-])cn2C1)N1CCN(c2ccc(OC(F)(F)F)cc2)CC1
Display unit: %
Numeric result: 100

Qu. Tell me the measured bioavailability of O=C(CO[C@@H]1COc2nc([N+](=O)[O-])cn2C1)N1CCN(c2ccc(C(F)(F)F)cn2)CC1 , please.
Ans. 100
